Here, molecules appear alongside IC50 reported for UniProtKB P08684 in the literature.
Sequence (P08684 whole entry): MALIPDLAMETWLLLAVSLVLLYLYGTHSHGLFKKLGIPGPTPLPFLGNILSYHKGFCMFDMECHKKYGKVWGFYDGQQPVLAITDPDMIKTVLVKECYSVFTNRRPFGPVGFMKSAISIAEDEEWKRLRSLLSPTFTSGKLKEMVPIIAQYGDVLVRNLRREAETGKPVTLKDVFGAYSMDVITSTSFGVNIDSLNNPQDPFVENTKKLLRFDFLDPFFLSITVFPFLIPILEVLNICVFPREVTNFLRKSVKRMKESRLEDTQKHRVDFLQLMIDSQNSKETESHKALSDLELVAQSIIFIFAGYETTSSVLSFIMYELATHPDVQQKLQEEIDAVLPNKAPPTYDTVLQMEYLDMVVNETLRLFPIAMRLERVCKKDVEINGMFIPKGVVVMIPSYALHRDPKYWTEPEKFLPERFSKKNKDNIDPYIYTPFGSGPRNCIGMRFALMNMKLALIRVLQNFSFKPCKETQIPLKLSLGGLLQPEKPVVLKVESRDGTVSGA

Prompt: Report value only: IC50, UniProtKB P08684, Cc1c(-c2ccccc2)nc2ccc(Cl)cc2c1C(=O)Nc1ccc(C(=O)O)cc1F
Response: > 20 µM

Prompt: Report value only: IC50, UniProtKB P08684, CC1=C(N2CCC3(CCN(C[C@H](O)c4ccc5c(c4C)COC5=O)CC3)C2=O)COC1=O
Response: > 50 µM

Prompt: Report value only: IC50, UniProtKB P08684, Cc1cc(C(=O)O)nn1Cc1cc(Br)ccc1OCc1ccccc1
Response: > 100 µM

Prompt: Report value only: IC50, UniProtKB P08684, CC(=O)N1CCC(C(=O)N2C[C@H](C(=O)N(C)Cc3cc(C(F)(F)F)cc(C(F)(F)F)c3)[C@@H](c3ccccc3)C2)CC1 (stereo in doubt; 8c)
Response: 18 µM

Prompt: Report value only: IC50, UniProtKB P08684, COc1ccc2c(c1)CN(C1CCN(C(=O)C3(F)CCN(Cc4ccnc(N)c4)CC3)CC1)CCC2
Response: > 30 µM

Prompt: Report value only: IC50, UniProtKB P08684, COc1ccc(Cn2c(C3CCCN(C4CCOCC4)C3)nc3ccccc32)cc1 (stereo unspecified)
Response: > 5 µM
